Biological target: Bcl-xL/Bim (Homo sapiens)
Test: Bcl-xL/Bim ELISA (GST-Bcl-xL binding to biotinylated Bim BH3 peptide)
Details: Table 3-A structure I; Bcl-xL at 10 nM; n ≥ 3; read-out: Bcl-xL-Bim IC50 (average ± SEM)
Measured IC50 by item
OBSERVED PROPERTY: IC50 (µM)

1) O=C(c1ccc(P(=O)(O)O)cc1O)c1[nH]c(Cl)c(Cl)c1-n1c(C(=O)c2ccc(P(=O)(O)O)cc2O)cc(Cl)c1Cl: 27.3
2) O=C(c1ccc(OS(=O)(=O)C(F)(F)F)cc1O)c1[nH]c(Cl)c(Cl)c1-n1c(C(=O)c2ccc(OS(=O)(=O)C(F)(F)F)cc2O)cc(Cl)c1Cl: 2.1
3) CCOC(=O)CSc1ccc(C(=O)c2[nH]c(Cl)c(Cl)c2-n2c(C(=O)c3ccc(SCC(=O)OCC)cc3O)cc(Cl)c2Cl)c(O)c1: 1.2
4) COc1ccc(CSc2ccc(C(=O)c3[nH]c(Cl)c(Cl)c3-n3c(C(=O)c4ccc(SCc5ccc(OC)cc5)cc4O)cc(Cl)c3Cl)c(O)c2)cc1: 0.6
5) CCc1ccc(C(=O)c2[nH]c(Cl)c(Cl)c2-n2c(C(=O)c3ccc(CC)cc3O)cc(Cl)c2Cl)c(O)c1: 3.9
6) O=C(c1ccccc1O)c1[nH]c(Cl)c(Cl)c1-n1c(C(=O)c2ccccc2O)cc(Cl)c1Cl (racemic) [(±)-1, (±)-marinopyrrole A, reference compound]: 16.4
7) C#Cc1ccc(C(=O)c2[nH]c(Cl)c(Cl)c2-n2c(C(=O)c3ccc(C#C)cc3O)cc(Cl)c2Cl)c(O)c1: 5.6
8) O=C(c1ccc(S(=O)(=O)Cc2ccccc2)cc1O)c1[nH]c(Cl)c(Cl)c1-n1c(C(=O)c2ccc(S(=O)(=O)Cc3ccccc3)cc2O)cc(Cl)c1Cl: 69.3
9) Cc1cc(O)c(C(=O)c2[nH]c(Cl)c(Cl)c2-n2c(C(=O)c3cc(Cl)c(C)cc3O)cc(Cl)c2Cl)cc1Cl: 2.5

* * *

Biological target: Mcl-1/Bim (Homo sapiens)
Sequence (Q07820 whole entry): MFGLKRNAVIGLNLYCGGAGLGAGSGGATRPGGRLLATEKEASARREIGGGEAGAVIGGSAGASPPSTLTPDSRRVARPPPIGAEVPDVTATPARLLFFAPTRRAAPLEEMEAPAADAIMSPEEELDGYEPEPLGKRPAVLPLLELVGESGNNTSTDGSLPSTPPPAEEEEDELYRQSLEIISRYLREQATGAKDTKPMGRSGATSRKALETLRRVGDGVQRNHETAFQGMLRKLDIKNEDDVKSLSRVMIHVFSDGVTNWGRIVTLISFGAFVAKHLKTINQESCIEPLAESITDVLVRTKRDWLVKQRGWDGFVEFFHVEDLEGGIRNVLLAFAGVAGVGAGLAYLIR
Assay: Mcl-1/Bim ELISA (GST-Mcl-1 binding to biotinylated Bim BH3 peptide)
Details: Table 3-A structure I; Mcl-1 at 10 nM; n ≥ 3; read-out: Mcl-1-Bim IC50 (average ± SEM)
Threshold check on IC50: strictly below 3 µM is MET; on or above 3 µM is NOT MET.

1. O=C(O)CSc1ccc(C(=O)c2[nH]c(Cl)c(Cl)c2-n2c(C(=O)c3ccc(SCC(=O)O)cc3O)cc(Cl)c2Cl)c(O)c1 [Compound 1-15]: NOT MET
2. COC(=O)c1ccc(C(=O)c2[nH]c(Cl)c(Cl)c2-n2c(C(=O)c3ccc(C(=O)OC)cc3O)cc(Cl)c2Cl)c(O)c1 [Compound I-17]: NOT MET
3. O=C(c1ccccc1O)c1[nH]c(Cl)c(Cl)c1-n1c(C(=O)c2ccccc2O)cc(Cl)c1Cl (racemic) [(±)-1, (±)-marinopyrrole A, reference compound]: NOT MET
4. CCc1ccc(C(=O)c2[nH]c(Cl)c(Cl)c2-n2c(C(=O)c3ccc(CC)cc3O)cc(Cl)c2Cl)c(O)c1 [Compound 1-5]: MET
5. O=C(c1ccc(SCc2ccccc2)cc1O)c1[nH]c(Cl)c(Cl)c1-n1c(C(=O)c2ccc(SCc3ccccc3)cc2O)cc(Cl)c1Cl [Compound 1-10]: MET
6. O=C(c1ccc(S(=O)(=O)Cc2ccccc2)cc1O)c1[nH]c(Cl)c(Cl)c1-n1c(C(=O)c2ccc(S(=O)(=O)Cc3ccccc3)cc2O)cc(Cl)c1Cl [Compound 1-13]: NOT MET
7. O=C(c1ccc(P(=O)(O)O)cc1O)c1[nH]c(Cl)c(Cl)c1-n1c(C(=O)c2ccc(P(=O)(O)O)cc2O)cc(Cl)c1Cl [Compound I-20]: NOT MET
8. CCOC(=O)CSc1ccc(C(=O)c2[nH]c(Cl)c(Cl)c2-n2c(C(=O)c3ccc(SCC(=O)OCC)cc3O)cc(Cl)c2Cl)c(O)c1 [Compound 1-9]: MET
9. O=C(O)CS(=O)(=O)c1ccc(C(=O)c2[nH]c(Cl)c(Cl)c2-n2c(C(=O)c3ccc(S(=O)(=O)CC(=O)O)cc3O)cc(Cl)c2Cl)c(O)c1 [Compound 1-16]: NOT MET
10. O=C(O)c1ccc(C(=O)c2[nH]c(Cl)c(Cl)c2-n2c(C(=O)c3ccc(C(=O)O)cc3O)cc(Cl)c2Cl)c(O)c1 [Compound I-18]: NOT MET
11. O=C(c1ccc(OS(=O)(=O)C(F)(F)F)cc1O)c1[nH]c(Cl)c(Cl)c1-n1c(C(=O)c2ccc(OS(=O)(=O)C(F)(F)F)cc2O)cc(Cl)c1Cl [Compound 1-6]: MET
12. Cc1cc(O)c(C(=O)c2[nH]c(Cl)c(Cl)c2-n2c(C(=O)c3cc(Cl)c(C)cc3O)cc(Cl)c2Cl)cc1Cl [Compound 1-2]: MET
13. C#Cc1ccc(C(=O)c2[nH]c(Cl)c(Cl)c2-n2c(C(=O)c3ccc(C#C)cc3O)cc(Cl)c2Cl)c(O)c1 [Compound 1-3]: NOT MET

* * *

Target: Bcl-xL/Bim (Homo sapiens)
Assay: Bcl-xL/Bim ELISA (GST-Bcl-xL binding to biotinylated Bim BH3 peptide)
Details: Table 1; Bcl-xL at 10 nM; n ≥ 3; read-out: Bcl-xL-Bim IC50 (average ± SEM)
OBSERVED PROPERTY: IC50

1) O=C1c2ccc(P(=O)(O)O)cc2Oc2c(Cl)cc(C(=O)c3ccc(P(=O)(O)O)cc3O)n2-c2c1[nH]c(Cl)c2Cl [IV-6]: > 100 µM
2) O=C(O)c1ccc(C(=O)c2cc(Cl)c3n2-c2c([nH]c(Cl)c2Cl)C(=O)c2ccc(C(=O)O)cc2O3)c(O)c1 [IV-4]: > 100 µM
3) O=C1c2ccc(O)cc2Oc2c(Cl)cc(C(=O)c3ccc(O)cc3O)n2-c2c1[nH]c(Cl)c2Cl [IV-2]: > 100 µM

* * *

Measured selectivity for Mcl-1 over Bcl-xL (Mcl-1/Bim over Bcl-xL/Bim) by item
Target: Mcl-1/Bim (Homo sapiens)
Test: Mcl-1/Bim ELISA (GST-Mcl-1 binding to biotinylated Bim BH3 peptide)
Conditions: ratio of ELISA IC50 values
OBSERVED PROPERTY: selectivity for Mcl-1 over Bcl-xL (Mcl-1/Bim over Bcl-xL/Bim)

1) CCOC(=O)Cn1cc(-c2ccc(C(=O)c3[nH]c(Cl)c(Cl)c3-n3c(C(=O)c4ccc(-c5cn(CC(=O)OCC)nn5)cc4O)cc(Cl)c3Cl)c(O)c2)nn1: 5.4 fold
2) CC(C)(C)OC(=O)Cn1cc(-c2ccc(C(=O)c3[nH]c(Cl)c(Cl)c3-n3c(C(=O)c4ccc(-c5cn(CC(=O)OC(C)(C)C)nn5)cc4O)cc(Cl)c3Cl)c(O)c2)nn1: 1.6 fold
3) COc1ccccc1C(=O)c1c(-n2c(C(=O)c3ccccc3OC)cc(Cl)c2Cl)c(Cl)c(Cl)n1C: 4.2 fold
4) O=C(O)Cn1cc(-c2ccc(C(=O)c3[nH]c(Cl)c(Cl)c3-n3c(C(=O)c4ccc(-c5cn(CC(=O)O)nn5)cc4O)cc(Cl)c3Cl)c(O)c2)nn1: 3.0 fold

* * *

Target: Mcl-1/Bim (Homo sapiens)
Assay: Mcl-1/Bim ELISA (GST-Mcl-1 binding to biotinylated Bim BH3 peptide)
Settings: Table 2-B; n ≥ 3; read-out: Mcl-1/Bim IC50 (average ± SEM)
Description: ELISAs were performed using a modified version of a previously described procedure (Doi K et al. J. Biol. Chem. 2012, 287, 10224-10235). Briefly, 40 nM of biotinylated Bim BH3 peptide (Biomatik) in SuperBlock blocking buffer (Pierce) was incubated in high-binding capacity streptavidin-coated plates (Pierce) for 2 h. […] 100 μL of 1 N HCl was added to each well to stop the reaction and absorbance was read at 450 nm using a μQuant plate reader (Bio-Tek). […]
OBSERVED PROPERTY: IC50 (µM)

1) O=C1c2ccc(O)cc2Oc2c(Cl)cc(C(=O)c3ccc(O)cc3O)n2-c2c1[nH]c(Cl)c2Cl [IV-2]: 8
2) O=C(c1ccccc1O)c1[nH]c(Cl)c(Cl)c1-n1c(C(=O)c2ccccc2O)cc(Cl)c1Cl (racemic) [(±)-1, (±)-marinopyrrole A, reference compound]: 8.9
3) O=C(c1ccc(S(=O)(=O)Cc2ccccc2)cc1O)c1[nH]c(Cl)c(Cl)c1-n1c(C(=O)c2ccc(S(=O)(=O)Cc3ccccc3)cc2O)cc(Cl)c1Cl [Compound 1-13]: 11.2

* * *

Measured pIC50 by item
Target: Bcl-xL/Bim (Homo sapiens, UniProt Q07817)
Sequence (Q07817 whole entry): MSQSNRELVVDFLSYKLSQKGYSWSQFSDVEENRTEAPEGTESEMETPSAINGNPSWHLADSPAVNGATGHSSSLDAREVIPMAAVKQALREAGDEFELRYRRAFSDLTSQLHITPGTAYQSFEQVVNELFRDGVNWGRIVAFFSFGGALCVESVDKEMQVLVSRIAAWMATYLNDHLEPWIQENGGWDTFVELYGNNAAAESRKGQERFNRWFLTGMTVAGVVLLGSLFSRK
Experiment: Bcl-xL/Bim ELISA (GST-Bcl-xL binding to biotinylated Bim BH3 peptide)
Settings: Table 2-B; n ≥ 3 unless specified; read-out: Bcl-xL/Bim IC50 (average ± SEM)
pIC50: −log10 of the molar value.
OBSERVED PROPERTY: pIC50

1. CCOC(=O)CS(=O)(=O)c1ccc(C(=O)c2[nH]c(Cl)c(Cl)c2-n2c(C(=O)c3ccc(S(=O)(=O)CC(=O)OCC)cc3O)cc(Cl)c2Cl)c(O)c1 [Compound 1-12]: < 4.30
2. O=C(O)CSc1ccc(C(=O)c2[nH]c(Cl)c(Cl)c2-n2c(C(=O)c3ccc(SCC(=O)O)cc3O)cc(Cl)c2Cl)c(O)c1 [Compound 1-15]: < 4.00
3. O=C(c1cc(Cl)c(O)cc1O)c1[nH]c(Cl)c(Cl)c1-n1c(C(=O)c2cc(Cl)c(O)cc2O)cc(Cl)c1Cl [Compound 1-8]: < 4.30
4. O=C(c1ccc(O)cc1O)c1[nH]c(Cl)c(Cl)c1-n1c(C(=O)c2ccc(O)cc2O)cc(Cl)c1Cl [Compound 1-7]: < 4.30
